# experiment_summary: chemical genetic growth profiling, strain panel (AID 1159580);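 also: tested at 20 µM; growth read once vehicle control cultures reached saturation at 30 °C; 1 = growth at the plate median or of vehicle wells; lower values mean less growth of the strain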
# experimental_context: S. cerevisiae deletion strains, growth OD, locus YPR119W, strain clb2, stronger effect = lower value
Screen size: about 5,500 compounds; about 2,000 (36%) were called active. Another 18% or so got no clear call; they are omitted. The list shows a part of the results.
readout_label: normalized growth

{"compound": "O=C(/C=C/c1ccccc1)c1c(O)cc(O)cc1O", "observed_measurement": 0.997}
{"compound": "COc1ccccc1OCC(O)COC(N)=O (stereo not given)", "observed_measurement": 0.991}
{"compound": "O=C(/C=C/c1ccc(O)cc1)c1ccc(O)cc1O", "observed_measurement": 0.949}
{"compound": "COc1cc(Cc2cnc(N)nc2N)cc(OC)c1OC", "observed_measurement": 0.986}
{"compound": "OC[C@H]1O[C@@H](Oc2ccc(O)cc2)[C@H](O)[C@@H](O)[C@@H]1O", "observed_measurement": 1.03}
{"compound": "COc1ccc(/C=C/c2cc(O)cc(O[C@@H]3O[C@H](CO)[C@@H](O)[C@H](O)[C@H]3O)c2)cc1", "observed_measurement": 0.998}
{"compound": "CCCN(CCC)c1c([N+](=O)[O-])cc(C(F)(F)F)cc1[N+](=O)[O-]", "observed_measurement": 1.01}
{"compound": "CCCCN(CC)c1c([N+](=O)[O-])cc(C(F)(F)F)cc1[N+](=O)[O-]", "observed_measurement": 1.01}
{"compound": "O=C(/C=C/c1ccccc1)c1ccc(O[C@@H]2O[C@H](CO)[C@@H](O)[C@H](O)[C@H]2O)cc1O", "observed_measurement": 0.885}
{"compound": "CC(=O)Nc1c(I)cc(I)c(C(=O)O)c1I", "observed_measurement": 0.986}

----------
Catalogue of normalized growth readings, one per entry.
# experiment_summary: chemical genetic growth profiling, strain panel (AID 1159580);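 also: tested at 20 µM; growth read once vehicle control cultures reached saturation at 30 °C; 1 = growth at the plate median or of vehicle wells; lower values mean less growth of the strain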
# experimental_context: S. cerevisiae deletion strains, growth OD, locus YNL183C, strain NPR1, stronger effect = lower value
The campaign covered roughly 5,500 compounds. About 2,000 (36%) were called active. Roughly 18% stayed inconclusive and do not appear here. This is one part of the list.
readout_label: normalized growth

{"compound": "CC(c1cc2ccccc2s1)N(O)C(N)=O (centres undefined)", "observed_measurement": 0.892}
{"compound": "C[N+]1(C)C2CCC1CC(OC(=O)C(CO)c1ccccc1)C2 (centres undefined)", "observed_measurement": 0.929}
{"compound": "CCCN(CCC)c1c([N+](=O)[O-])cc(C(F)(F)F)cc1[N+](=O)[O-]", "observed_measurement": 0.915}
{"compound": "COc1ccc(Oc2ccc([N+](=O)[O-])cc2C(=O)O/N=C(/N)c2ccc(C(F)(F)F)cc2)cc1", "observed_measurement": 1.04}
{"compound": "O=C(NCc1ccc2c(c1)OCO2)c1cc2ccccc2s1", "observed_measurement": 0.322}
{"compound": "Cc1cc(Sc2c([N+](=O)[O-])cc(C(F)(F)F)cc2[N+](=O)[O-])c(Cl)cc1Cl", "observed_measurement": 1.04}
{"compound": "O=Cc1ccccc1O[C@@H]1O[C@H](CO)[C@H](O)[C@@H](O)[C@H]1O", "observed_measurement": 0.992}
{"compound": "C=CC[C@@H]1/C=C(\\C)C[C@H](C)C[C@H](OC)[C@H]2O[C@@](O)(C(=O)C(=O)N3CCCC[C@H]3C(=O)O[C@H](/C(C)=C/[C@@H]3CC[C@@H](O)[C@H](OC)C3)[C@H](C)[C@@H](O)CC1=O)[C@H](C)C[C@@H]2OC", "observed_measurement": 0.781}
{"compound": "CCCCN(CC)c1c([N+](=O)[O-])cc(C(F)(F)F)cc1[N+](=O)[O-]", "observed_measurement": 0.999}
